Source: ChEMBL document CHEMBL4396973

TGT: Kallikrein-14 (Homo sapiens)
Sequence (Q9P0G3 whole entry): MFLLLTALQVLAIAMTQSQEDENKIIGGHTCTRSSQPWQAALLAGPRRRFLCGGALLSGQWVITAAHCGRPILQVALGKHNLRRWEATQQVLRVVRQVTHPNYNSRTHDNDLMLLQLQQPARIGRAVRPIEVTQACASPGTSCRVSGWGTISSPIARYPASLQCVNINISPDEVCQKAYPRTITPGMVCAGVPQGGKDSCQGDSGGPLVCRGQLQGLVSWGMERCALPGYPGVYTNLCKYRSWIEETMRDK
ASSAY_COMMENT: Inhibition of recombinant human C-terminal 10-His-tagged KLK14 (Q19 to M248 residues) expressed in mouse NS0 cells using BOC-VPR-AMC as substrate incubated for 40 mins by FLINT assay
pIC50: −log10 of the molar value.
READOUT_LABEL: pIC50

[P] COc1ccc2c(c1)C(Cc1ccc(C(=N)N)c(OCc3cccnc3)c1)OB2O (racemic)
[Q] N=C(N)c1ccc(C2Cc3ccc(F)cc3B(O)O2)cc1OCc1cccnc1 (racemic)
[R] N=C(N)c1ccc(C2Cc3ccc(C(F)(F)F)cc3B(O)O2)cc1OCc1cccnc1 (racemic)
Which order do these items fall in when sorted by pIC50 from largest to smallest? Answer by listing the labels in the requested order.
R, Q, P

###

TGT: Kallikrein-14 (Homo sapiens)
Sequence (Q9P0G3 whole entry): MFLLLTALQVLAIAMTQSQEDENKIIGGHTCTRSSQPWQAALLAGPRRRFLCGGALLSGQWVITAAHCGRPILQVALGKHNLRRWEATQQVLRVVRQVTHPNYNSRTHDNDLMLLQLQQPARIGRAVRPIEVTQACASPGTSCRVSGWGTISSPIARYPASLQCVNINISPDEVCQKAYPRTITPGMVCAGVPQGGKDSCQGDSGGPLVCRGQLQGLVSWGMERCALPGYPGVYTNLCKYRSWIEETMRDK
ASSAY_COMMENT: Inhibition of recombinant human C-terminal 10-His-tagged KLK14 (Q19 to M248 residues) expressed in mouse NS0 cells using BOC-VPR-AMC as substrate incubated for 40 mins by FLINT assay
pIC50: −log10 of the molar value.
READOUT_LABEL: pIC50

| MOLECULE | pIC50 |
| --- | --- |
| N=C(N)c1ccc(CC2OB(O)c3cc(F)ccc32)cc1OCc1cccnc1 (racemic) | 4.90 |

[1] Cc1cccc2c1B(O)OC(c1ccc(C(=N)N)c(OCc3cccnc3)c1)C2 (racemic)
[2] Cl.N=C(N)c1ccc([C@H]2Cc3ccc(C(F)(F)F)cc3B(O)O2)cc1OCc1cccnc1
// which entry has the larger pIC50 value, 1 or 2 ? Please reply using the label of the selected record.
2
(2: 7.50, 1: 6.40)

[a] N=C(N)c1ccc(C2Cc3cc(Cl)c(F)cc3B(O)O2)cc1OCc1cccnc1 (racemic)
[b] N=C(N)c1ccc(CC2OB(O)c3ccccc32)cc1OCc1cccnc1 (racemic)
Select one. Lower pIC50: a or b Please reply using the label of the selected record.
b

###

Each entry below lists one item and its recorded pIC50 value.
TGT: Kallikrein-7 (Homo sapiens, UniProt P49862)
Sequence (P49862 whole entry): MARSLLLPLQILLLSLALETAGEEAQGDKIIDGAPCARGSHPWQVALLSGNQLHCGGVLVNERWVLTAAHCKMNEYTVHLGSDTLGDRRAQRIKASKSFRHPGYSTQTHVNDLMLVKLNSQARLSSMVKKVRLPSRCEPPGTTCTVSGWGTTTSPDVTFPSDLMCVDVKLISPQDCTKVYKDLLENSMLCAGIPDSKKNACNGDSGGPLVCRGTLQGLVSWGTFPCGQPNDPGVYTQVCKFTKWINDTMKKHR
ASSAY_COMMENT: Inhibition of recombinant human C-terminal 10-His-tagged KLK7 (Glu23 to His252 residues) expressed in mouse NS0 cells using 5-FAM-E-A-L-Y-L-V-S-G-C(5-TAMRA) as substrate incubated for 40 mins by FLINT assay
pIC50: −log10 of the molar value.

Field request: pIC50 | item: N=C(N)c1ccc(CC2OB(O)c3cc(C(F)(F)F)ccc32)cc1OCc1cccnc1 (racemic)
< 4.00

Field request: pIC50 | item: N=C(N)c1ccc(CC2OB(O)c3ccccc32)cc1OCc1cccnc1 (racemic)
< 4.00

Field request: pIC50 | item: N=C(N)c1ccc(CC2OB(O)c3ccc(F)cc32)cc1OCc1cccnc1 (racemic)
< 4.00

Field request: pIC50 | item: N=C(N)c1ccc(C2Cc3cc(Cl)c(F)cc3B(O)O2)cc1OCc1cccnc1 (racemic)
< 4.00

Field request: pIC50 | item: N=C(N)c1ccc(C2Cc3ccc(F)cc3B(O)O2)cc1OCc1cccnc1 (racemic)
< 4.00

Field request: pIC50 | item: N=C(N)c1ccc(CC2OB(O)c3cc(F)ccc32)cc1OCc1cccnc1 (racemic)
< 4.00

Field request: pIC50 | item: Cc1ccc2c(c1)C(Cc1ccc(C(=N)N)c(OCc3cccnc3)c1)OB2O (racemic)
< 4.00

Field request: pIC50 | item: Cl.N=C(N)c1ccc([C@H]2Cc3ccc(C(F)(F)F)cc3B(O)O2)cc1OCc1cccnc1
4.10

Field request: pIC50 | item: COc1ccc2c(c1)C(Cc1ccc(C(=N)N)c(OCc3cccnc3)c1)OB2O (racemic)
< 4.00

Field request: pIC50 | item: N=C(N)c1ccc([C@@H]2Cc3ccc(C(F)(F)F)cc3B(O)O2)cc1OCc1cccnc1
< 4.00

###

TGT: Kallikrein-8 (Homo sapiens, UniProt O60259)
Sequence (O60259 whole entry): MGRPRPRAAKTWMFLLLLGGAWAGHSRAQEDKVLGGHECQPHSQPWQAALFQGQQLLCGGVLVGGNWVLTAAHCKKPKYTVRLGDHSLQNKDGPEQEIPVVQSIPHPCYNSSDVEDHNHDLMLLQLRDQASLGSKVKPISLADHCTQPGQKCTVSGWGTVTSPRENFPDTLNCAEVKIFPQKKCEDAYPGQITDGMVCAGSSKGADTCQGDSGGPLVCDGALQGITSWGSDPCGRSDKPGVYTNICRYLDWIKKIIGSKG
ASSAY_COMMENT: Inhibition of recombinant human C-terminal 10-His-tagged KLK8 (Gln29 to Gly260 residues) expressed in mouse NS0 cells using BOC-VPR-AMC as substrate incubated for 40 mins by FLINT assay
READOUT_LABEL: IC50 (nM)

Some entries whose results are on file:
| COMPOUND | MEASUREMENT_UNIT | IC50 |
| --- | --- | --- |
| Cl.N=C(N)c1ccc([C@H]2Cc3ccc(C(F)(F)F)cc3B(O)O2)cc1OCc1cccnc1 | nM | 6.31 |
| N=C(N)c1ccc(CC2OB(O)c3cc(F)ccc32)cc1OCc1cccnc1 (racemic) | nM | 7940 |
| N=C(N)c1ccc([C@@H]2Cc3ccc(C(F)(F)F)cc3B(O)O2)cc1OCc1cccnc1 | nM | 31.6 |

[P] Cc1ccc2c(c1)C(Cc1ccc(C(=N)N)c(OCc3cccnc3)c1)OB2O (racemic)
[Q] N=C(N)c1ccc(C2Cc3ccccc3B(O)O2)cc1OCc1cccnc1 (racemic)
Select one. Lower IC50: P or Q Please reply using the label of the selected record.
Q

###

TGT: Kallikrein-8 (Homo sapiens, UniProt O60259)
Sequence (O60259 whole entry): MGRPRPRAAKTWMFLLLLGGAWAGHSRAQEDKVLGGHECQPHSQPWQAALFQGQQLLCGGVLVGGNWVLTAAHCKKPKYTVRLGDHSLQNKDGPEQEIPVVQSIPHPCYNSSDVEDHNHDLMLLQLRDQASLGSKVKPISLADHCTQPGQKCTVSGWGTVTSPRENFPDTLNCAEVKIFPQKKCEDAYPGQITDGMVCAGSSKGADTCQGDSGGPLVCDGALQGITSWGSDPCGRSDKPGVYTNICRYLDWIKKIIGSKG
ASSAY_COMMENT: Inhibition of recombinant human C-terminal 10-His-tagged KLK8 (Gln29 to Gly260 residues) expressed in mouse NS0 cells using BOC-VPR-AMC as substrate incubated for 40 mins by FLINT assay
pIC50: −log10 of the molar value.
READOUT_LABEL: pIC50

[1] N=C(N)c1ccc(CC2OB(O)c3cc(C(F)(F)F)ccc32)cc1OCc1cccnc1 (racemic)
[2] N=C(N)c1ccc(C2Cc3ccccc3B(O)O2)cc1OCc1ccccc1Cl (racemic)
[3] N=C(N)c1ccc(C2Cc3ccc(C(F)(F)F)cc3B(O)O2)cc1OCc1cccnc1 (racemic)
Ordering: ascending pIC50. Answer by listing the labels in the requested order.
1, 2, 3

[P] N=C(N)c1ccc(CC2OB(O)c3ccccc32)cc1OCc1cccnc1 (racemic)
[Q] N=C(N)c1ccc(C2Cc3ccc(F)cc3B(O)O2)cc1OCc1cccnc1 (racemic)
// which entry has the larger pIC50 value, P or Q ? Please reply using the label of the selected record.
P

[a] N=C(N)c1ccc(CC2OB(O)c3ccc(F)cc32)cc1OCc1cccnc1 (racemic)
[b] Cc1cccc2c1B(O)OC(c1ccc(C(=N)N)c(OCc3cccnc3)c1)C2 (racemic)
[c] N=C(N)c1ccc(C2Cc3ccccc3B(O)O2)cc1OCc1cccc(Cl)c1 (racemic)
[d] N=C(N)c1ccc(C2Cc3cc(Cl)c(F)cc3B(O)O2)cc1OCc1cccnc1 (racemic)
hey, can you rank those compounds up there by pIC50? biggest number first please Answer by listing the labels in the requested order.
c, d, b, a

###

TGT: Kallikrein-1 (Homo sapiens)
Sequence (P06870 whole entry, the tested form may be a part): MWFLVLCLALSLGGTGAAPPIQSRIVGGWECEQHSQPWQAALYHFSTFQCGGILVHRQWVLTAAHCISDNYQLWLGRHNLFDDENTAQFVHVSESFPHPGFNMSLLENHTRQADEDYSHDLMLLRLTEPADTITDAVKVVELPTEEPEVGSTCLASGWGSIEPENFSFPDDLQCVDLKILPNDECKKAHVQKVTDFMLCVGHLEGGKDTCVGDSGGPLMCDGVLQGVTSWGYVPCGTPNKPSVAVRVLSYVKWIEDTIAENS
ASSAY_COMMENT: Inhibition of human recombinant N-terminal His-tagged and enterokinase cleavage site-fused KLK1 (19 to 262 residues) expressed in baculovirus infected Sf9 insect cells using R110 labelled GSK3162232A as substrate measured at 30 secs interval for 5 mins by FLINT assay
READOUT_LABEL: IC50

Field request: IC50 | item: N=C(N)c1ccc(CC2OB(O)c3ccc(F)cc32)cc1OCc1cccnc1 (racemic)
> 10 µM

Field request: IC50 | item: N=C(N)c1ccc(C2Cc3cc(Cl)c(F)cc3B(O)O2)cc1OCc1cccnc1 (racemic)
3.98 to 6.31 µM

Field request: IC50 | item: N=C(N)c1ccc(NCC2Cc3ccccc3B(O)O2)cc1 (racemic)
> 10 µM
